So I've got a bunch of compounds here, and I need their EC50 values.
Biological target: hNLRP3 inflammasome (Homo sapiens, UniProt Q96P20)
Construct: endogenous in cells; host or cells: THP-1 cells, PMA-differentiated
Sequence (Q96P20 whole entry): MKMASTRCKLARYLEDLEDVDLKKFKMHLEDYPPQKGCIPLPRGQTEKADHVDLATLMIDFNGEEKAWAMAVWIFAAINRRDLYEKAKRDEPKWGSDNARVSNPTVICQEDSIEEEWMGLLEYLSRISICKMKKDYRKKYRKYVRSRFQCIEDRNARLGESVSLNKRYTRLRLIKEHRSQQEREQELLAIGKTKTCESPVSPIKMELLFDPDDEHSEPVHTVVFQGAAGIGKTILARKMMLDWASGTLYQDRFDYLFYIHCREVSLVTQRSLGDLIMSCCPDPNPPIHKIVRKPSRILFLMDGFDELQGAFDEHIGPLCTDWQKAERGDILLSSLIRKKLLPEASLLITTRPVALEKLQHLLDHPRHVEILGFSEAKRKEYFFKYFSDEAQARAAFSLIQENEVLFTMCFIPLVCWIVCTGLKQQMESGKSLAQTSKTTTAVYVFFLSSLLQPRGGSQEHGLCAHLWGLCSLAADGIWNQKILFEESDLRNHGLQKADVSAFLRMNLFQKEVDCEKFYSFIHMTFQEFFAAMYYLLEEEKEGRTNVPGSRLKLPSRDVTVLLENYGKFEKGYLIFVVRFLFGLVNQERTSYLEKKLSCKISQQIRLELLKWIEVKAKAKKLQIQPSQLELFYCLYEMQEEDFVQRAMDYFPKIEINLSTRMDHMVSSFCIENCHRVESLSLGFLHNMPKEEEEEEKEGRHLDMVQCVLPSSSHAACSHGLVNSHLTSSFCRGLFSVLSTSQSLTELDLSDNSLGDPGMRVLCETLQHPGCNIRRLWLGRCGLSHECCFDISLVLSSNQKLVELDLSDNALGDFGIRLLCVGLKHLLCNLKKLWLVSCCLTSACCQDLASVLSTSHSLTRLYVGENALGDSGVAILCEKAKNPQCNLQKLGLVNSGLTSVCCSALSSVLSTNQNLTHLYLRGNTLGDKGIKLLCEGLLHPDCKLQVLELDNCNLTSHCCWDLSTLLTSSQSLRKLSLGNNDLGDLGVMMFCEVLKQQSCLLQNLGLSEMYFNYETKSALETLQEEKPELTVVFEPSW
Assay: Agonistic effect on the expression of IL-1β in THP-1 cells after PMA-induced differentiation (HTRF)
Type: cell-based
Details: IL-1β level, PMA-differentiated THP-1 cells, 6 hours
Where a name gives a salt, the structure may show the parent alone.
Answer with the number, then the unit.

Please fill in: EC50 reported for CC(C)(O)CNc1cc(N)nc2cc(-c3ccn[nH]3)sc12 [Compound 28] = 0.54 µM

Please fill in: EC50 reported for Nc1cc(NC2CCC(O)CC2)c2sc(-c3ccn[nH]3)cc2n1 (stereo not drawn) [Compound 114] = 0.06 µM

Please fill in: EC50 reported for Nc1cc(NC2CC(O)C2)c2sc(-c3ccn[nH]3)cc2n1 (stereo not drawn) [Compound 40] = 0.39 µM

Please fill in: EC50 reported for C[C@@H]1CN(CCNc2cc(N)nc3cc(-c4ccn[nH]4)sc23)C[C@@H](C)O1 [Compound 124] = 0.05 µM

Please fill in: EC50 reported for Nc1cc(NCCNC(=O)C2CC2)c2sc(-c3ccn[nH]3)cc2n1 [Compound 64] = 0.05 µM

Please fill in: EC50 reported for Nc1cc(NCC(F)F)c2sc(-c3ccn[nH]3)cc2n1 [Compound 116s, hydrochloride] = 0.05 µM

Please fill in: EC50 reported for N#CC1(CNc2cc(N)nc3cc(-c4ccn[nH]4)sc23)CC1 [Compound 119] = 0.01 µM

Please fill in: EC50 reported for Nc1cc(NCC2CCOCC2)c2sc(-c3ccn[nH]3)cc2n1 [Compound 120] = 0.05 µM

Please fill in: EC50 reported for CN1CCN(CCCNc2cc(N)nc3cc(-c4ccn[nH]4)sc23)CC1 [Compound 54] = 0.92 µM
